The reported measurements were obtained from patent US10570122B2.

# Tested on: ACHN
# METHOD: CellTiter-Blue cell-based survival/proliferation assay, ACHN
# RECORDED_CONDITIONS: Homo sapiens; ACHN kidney tumor cell line, 48 h
# Description: Cell-Based Proliferation Screening of Compounds CellTiter-Blue cell-based survival/proliferation assay (Promega G8080) was performed on tumor cell lines. A total of 1·10^4 cells/well/50 μl were seeded in a 96-wells plate. Treatment was initiated by addition of a 2× drug solution of 1/10 serial dilutions ranging from 0 to 10 μM. […] The amount of resorufin dye formed was quantified by its fluorescence emission at 590 nm using a scanning multiwell spectrophotometer (OPTIMA, BMG labtech, France). […]
pIC50: −log10 of the molar value.
MEASURE: pIC50

1) CCOCc1ccc(C)c(Nc2ncc(-c3ccc(-n4cccn4)cc3)o2)c1	≥ 7.00
2) CCOCc1cc(C)cc(Nc2ncc(-c3ccc(-n4cccn4)cc3)o2)c1	< 6.00
3) CCOCc1ccc(C)c(Nc2nnc(-c3ccc(-n4cccn4)cc3)o2)c1	< 6.00
4) CCOCc1ccc(C)c(Nc2ncc(-c3ccc(N4C(=O)NC[C@H]4C)cc3)o2)c1	< 6.00
5) CCOCc1cc(Nc2ncc(-c3ccc(N4CCNC4=O)cc3)o2)cc(OCCOC)c1	6.30 to 7.00
6) CC(=O)NCCOCc1ccc(C)c(Nc2ncc(-c3ccc(-n4cccn4)cc3)o2)c1	< 6.00
7) COc1ccc(C)c(Nc2ncc(-c3ccc(N4CCNC4=O)cc3)s2)c1	< 6.00
8) CCOCc1ccc(C)c(Nc2ncc(-c3ccc(-c4ccccn4)cc3)o2)c1	< 6.00
9) CCOCc1ccc(C)c(Nc2ncc(-c3ccc(N4CCN(CCOC)C4=O)cc3)o2)c1	< 6.00
10) CCOCc1ccc(C)c(Nc2ncc(-c3ccc(-n4cccn4)c(OC)c3)o2)c1	< 6.00
11) CCOCc1ccc(C)c(Nc2ncc(-c3ccc(N4CCN(CCNC(C)=O)C4=O)cc3)o2)c1	< 6.00
12) CCOCc1cccc(Nc2ncc(-c3ccc(-n4cccn4)cc3)o2)c1	< 6.00
13) Cc1ccc(COCCO)cc1Nc1ncc(-c2ccc(-n3cccn3)cc2)o1	< 6.00
14) CCOCc1cc(COCC)cc(Nc2ncc(-c3ccc(N4CCNC4=O)cc3)o2)c1	< 6.00
15) CCOCc1ccc(C)c(Nc2ncc(-c3ccc(-n4ccc(C)n4)cc3)o2)c1	< 6.00
16) Cc1ccc(C(=O)NCCN2CCOCC2)cc1Nc1ncc(-c2ccc(-n3cccn3)cc2)o1	< 6.00
17) CCOCc1ccc(C)c(Nc2nc(-c3ccc(N4CCNC4=O)cc3)ns2)c1	≥ 7.00
18) CCOCc1ccc(C)c(Nc2ncc(-c3ccc(-n4ccccc4=O)cc3)o2)c1	< 6.00
19) CCOCc1ccc(C)c(Nc2ncc(-c3ccc(N4CCNC4=O)nc3)o2)c1	< 6.00
20) CCOCc1cc(Nc2ncc(-c3ccc(N4CCNC4=O)cc3)o2)cc(OCCO)c1	< 6.00
21) CCOCc1ccc(C)c(Nc2ncc(-c3ccc(-c4ccn[nH]4)cc3)o2)c1	< 6.00
22) CCOCc1ccc(C)c(Nc2nc(-c3ccc(-n4ccnc4)cc3)cs2)c1	< 6.00
23) CCOCc1ccc(C)c(Nc2ncc(-c3ccc(-n4ccnc4)cc3)o2)c1	< 6.00
24) Cc1ccc(CO)cc1Nc1nc(-c2ccc(-n3cccn3)cc2)cs1	< 6.00
25) CCOCc1ccc(C)c(Nc2nc(-c3ccc(N4CCNC4=O)cc3)cs2)c1	≥ 7.00
26) CCOCc1ccc(C)c(Nc2ncc(-c3ccc(N4CCNC4=O)cc3)s2)c1	< 6.00
27) CCOCc1ccc(C)c(Nc2ncc(-c3ccc(N4C(=O)NC[C@H]4C)nc3)o2)c1	< 6.00
28) CCOCc1ccc(C)c(Nc2ncc(-c3ccc(-n4nc[nH]c4=O)cc3)o2)c1	< 6.00
29) CNC(=O)c1ccc(C)c(Nc2ncc(-c3ccc(-n4cccn4)cc3)o2)c1	< 6.00
30) CCOCc1ccc(C)c(Nc2ncc(-c3ccc(N4CCNC4=O)cc3)o2)c1	≥ 7.00
31) CCOCc1ccc(C)c(Nc2nc(-c3ccc(-n4cccn4)cc3)cs2)c1	< 6.00
32) CCOCc1ccc(C)c(Nc2ncc(-c3ccc(-n4cc(C)cn4)cc3)o2)c1	< 6.00
33) CCOCc1ccc(C)c(Nc2ncc(-c3ccc(-n4ccnn4)cc3)o2)c1	< 6.00
34) CCOCc1cc(C)cc(Nc2nc(-c3ccc(N4CCNC4=O)cc3)cs2)c1	6.00 to 6.30
35) CCOCc1ccc(C)c(Nc2ncc(-c3ccc(-n4nccn4)cc3)o2)c1	6.30 to 7.00

###

# Tested on: CLS354
# METHOD: CellTiter-Blue cell-based survival/proliferation assay, CLS354
# RECORDED_CONDITIONS: Homo sapiens, CLS-354; CLS354_4 head & neck tumor cell line, 48 h
pIC50: −log10 of the molar value.
Entries and their measured pIC50 follow.
MEASURE: pIC50

1) CCOCc1ccc(C)c(Nc2ncc(-c3ccc(N4CCN(C)C4=O)cc3)o2)c1 [Example 044]	6.00 to 6.30
2) CCOCc1ccc(C)c(Nc2ncc(-c3ccc(-n4cc(C)cn4)cc3)o2)c1 [Example 040]	< 6.00
3) CCOCc1cc(Nc2ncc(-c3ccc(N4CCNC4=O)cc3)o2)cc(OCCOC)c1 [Example 056]	≥ 7.00
4) CCOCc1ccc(C)c(Nc2ncc(-c3ccc(N4CCNC4=O)cc3)s2)c1 [Example 014]	< 6.00
5) CCOCc1ccc(C)c(Nc2ncc(-c3ccc(N4CCNC4=O)nc3)o2)c1 [Example 055]	≥ 7.00
6) CCOCc1cc(COCC)cc(Nc2ncc(-c3ccc(N4CCNC4=O)cc3)o2)c1 [Example 053]	≥ 7.00
7) CCOCc1cc(COCC)cc(Nc2ncc(-c3ccc(-n4cccn4)cc3)o2)c1 [Example 022]	< 6.00
8) Cc1ccc(OCCN2CCOCC2)cc1Nc1ncc(-c2ccc(-n3cccn3)cc2)o1 [Example 029]	< 6.00

###

Listing: IC50 of selected compounds
# Tested on: PC3
# METHOD: CellTiter-Blue cell-based survival/proliferation assay, PC3
# RECORDED_CONDITIONS: Homo sapiens, PC-3; PC3 prostate tumor cell line, 48 h
MEASURE: IC50

1. CCOCc1ccc(C)c(Nc2ncc(-c3ccc(-c4ccn[nH]4)cc3)o2)c1 [Example 057]	500 to 1000 nM
2. CCOCc1ccc(C)c(Nc2ncc(-c3ccc(N4CCNC4=O)cc3)s2)c1 [Example 014]	> 1000 nM
3. CCOCc1ccc(C)c(Nc2ncc(-c3ccc(-c4nccs4)cc3)o2)c1 [Example 038]	> 1000 nM
4. Cc1ccc(OCCN(C)C)cc1Nc1ncc(-c2ccc(-n3cccn3)cc2)o1 [Example 030]	> 1000 nM
5. CCOCc1ccc(C)c(Nc2ncc(-c3ccc(-n4ccnn4)cc3)o2)c1 [Example 035]	> 1000 nM

###

The following molecules are shown together with reported IC50 values.
# System: CLS354
# METHOD: CellTiter-Blue cell-based survival/proliferation assay, CLS354
# RECORDED_CONDITIONS: Homo sapiens, CLS-354; CLS354_4 head & neck tumor cell line, 48 h
MEASURE: IC50

1. CCOCc1ccc(C)c(Nc2ncc(-c3ccc(-n4cncn4)cc3)o2)c1 [Example 034]	500 to 1000 nM
2. Cc1ccc(CO)cc1Nc1nc(-c2ccc(-n3cccn3)cc2)cs1 [Example 016]	> 1000 nM
3. CCOCc1ccc(C)c(Nc2ncc(-c3ccc(-c4ccn[nH]4)cc3)o2)c1 [Example 057]	100 to 500 nM
4. Cc1ccc(CO)cc1Nc1ncc(-c2ccc(-n3cccn3)cc2)o1 [Example 027]	> 1000 nM
5. Cc1ccc(C(=O)NCCN2CCOCC2)cc1Nc1ncc(-c2ccc(-n3cccn3)cc2)o1 [Example 005]	> 1000 nM
6. CCOCc1ccc(C)c(Nc2ncc(-c3ccc(-n4ccnc4)cc3)o2)c1 [Example 037]	> 1000 nM
7. CCOCc1ccc(C)c(Nc2ncc(-c3ccc(N4C(=O)NC[C@H]4C)nc3)o2)c1 [Example 058]	≤ 100 nM
8. CCOCc1cccc(Nc2ncc(-c3ccc(-n4cccn4)cc3)o2)c1 [Example 020]	≤ 100 nM
9. CCOCc1ccc(C)c(Nc2nc(-c3ccc(N4CCNC4=O)cc3)cs2)c1 [Example 003]	≤ 100 nM
10. CCOCc1ccc(C)c(Nc2ncc(-c3ccc(-n4ccnn4)cc3)o2)c1 [Example 035]	> 1000 nM
11. Cc1ccc(OCCN(C)C)cc1Nc1ncc(-c2ccc(-n3cccn3)cc2)o1 [Example 030]	> 1000 nM
12. CCOCc1ccc(C)c(Nc2ncc(-c3ccc(-n4cccn4)nc3)o2)c1 [Example 007]	≤ 100 nM
13. COc1ccc(C)c(Nc2ncc(-c3ccc(-n4cccn4)cc3)s2)c1 [Example 011]	> 1000 nM
14. CCOCc1ccc(C)c(Nc2ncc(-c3ccc(-c4ccc[nH]c4=O)cc3)o2)c1 [Example 050]	> 1000 nM
15. CCOCc1ccc(C)c(Nc2ncc(-c3ccc(N4CCNC4=O)cc3)o2)c1 [Example 006]	≤ 100 nM
16. Cc1ccc(COCCN)cc1Nc1ncc(-c2ccc(-n3cccn3)cc2)o1 [Example 024]	> 1000 nM
17. COc1ccc(C)c(Nc2ncc(-c3ccc(-n4cccn4)cc3)o2)c1 [Example 023]	100 to 500 nM
18. CCOCc1ccc(C)c(Nc2nnc(-c3ccc(-n4cccn4)cc3)o2)c1 [Example 009]	> 1000 nM
